All figures here come from ChEMBL document CHEMBL1201862.

- System: SN12C
- Procedure details: NCI tumour cell line growth inhibition, 48 h
Active and inactive are the calls of the source. No stated cut-off is given here; in the data, active = GI50 up to about 1.1 µM and inactive = higher.
Write down the outcome that applies. Available outcomes: yes (1) for active, no (0) for inactive

Molecule	Discrete label
O=C(c1ccc(Cl)cc1)N1N=C(c2ccc(Cl)cc2)CC1(O)c1cc(F)c(Cl)cc1Cl (configuration not stated)	no (0)

Please share the test call associated with CN(N)/N=N/c1[nH]cnc1[N+](=O)[O-] .
no (0)

Tell me the assay call for CC(=O)c1c(N=[N+]=[N-])c2cccc3c2n(c1=O)CCC3 please.
no (0)

For O=C(Cc1nc2ccccc2o1)C(=O)Nc1ccc(Cl)cc1Cl , which call appears in the assay record?
no (0)

Please let me know the test result on file for CCOC1=C(c2ccccc2)N2CCCCC2O1 (configuration not stated) .
no (0)

What is the recorded call for this molecule in the test? C=C1CC(OC)(C(O)C(=O)N[C@H]2OCO[C@H]3C2O[C@H](C[C@@H](CO)OC)C(C)(C)C3OC)O[C@H](C)[C@@H]1C (some centres not stated)
yes (1)

State the result this test recorded for Cc1[nH]c(=O)nc(N/N=C/c2ccc(O)cc2)c1C(=O)Nc1ccc(O)cc1 .
no (0)

---

- System: IGROV-1
- Procedure details: NCI tumour cell line growth inhibition, 48 h
The source made the active and inactive calls. Rule as the data show it: active = GI50 up to about 1.1 µM and inactive = higher.
Each record here notes measured GI50.

Compound	Measured
O=S1(=O)c2ccccc2N(c2ccccc2)c2nnnn21	32.3 µM (inactive)
CS/C(=N/C(=O)c1ccccc1)SCCS/C(=N\C(=O)c1ccccc1)SC	> 100 µM (inactive)
Cc1ccc(-n2c(Cn3nnc(-c4cccnc4)n3)nn(C3OC(COC(=O)c4ccccc4)C(OC(=O)c4ccccc4)C3OC(=O)c3ccccc3)c2=S)cc1 (stereo not given)	> 100 µM (inactive)

Record CCOc1cc(NC(C)=O)ccc1C(=O)NN1C(=O)/C(=C/c2ccc(Cl)cc2)N=C1c1ccccc1 . Reported GI50: 18.1 µM (inactive)

Entry CN(C)/N=C/c1cn(C)c(=O)n(C)c1=O ; GI50 = > 100 µM (inactive)

What the record says about CN(C)CC1CCC/C1=N\O (stereo not given) : GI50 is > 100 µM (inactive)

compound Cc1cc(C)nc(NS(=O)(=O)c2ccc(NC(=O)c3cccc4c(Nc5ccc(S(=O)(=O)N=C(N)N)cc5)c5ccccc5nc34)cc2)n1 , GI50 observed: 40.4 µM (inactive)

Record summary for O=[N+]([O-])c1ccc(C(Nc2ccccc2)c2ccc3cccnc3c2O)cc1 (stereo not given) : reported GI50 = 10.6 µM (inactive)

The compound identified as Brc1ccc2[nH]cc(-c3csc(-c4ccccn4)n3)c2c1 registered its GI50 at 23 µM (inactive)

Record summary for CC(=O)O[C@H]1CCC2[C@@H]3CCC4C(=O)c5oncc5C[C@]4(C)C3CC[C@@]21C (stereo not given in full) : reported GI50 = > 100 µM (inactive)

Data point: COC1OC(Cc2nnc(C)o2)C(OCc2ccccc2)C(OCc2ccccc2)C1OCc1ccccc1 (stereo not given) ; GI50 = 13.9 µM (inactive)

Entry CC[C@]1(c2ccc3c(c2)OCO3)C=[N+]([O-])O[C@H](OC2CCCC2(c2ccccc2)c2ccccc2)[C@@H]1OC(C)=O (stereo not given in full) ; GI50 = 1.94 µM (inactive)

The compound listed as Cc1c(F)c(NC(=O)CN(C)C)c2c(=O)cc(-c3ccc(NC(=O)CN(C)C)c(F)c3)oc2c1F has a reported GI50 of 15.7 µM (inactive)

The recorded GI50 for Cn1c(=O)nc2n(-c3ccc(Cl)cc3Cl)c3ccccc3nc-2c1=O is 12.8 µM (inactive)

Form: compound = O=C(/C(=N\Nc1ccc([N+](=O)[O-])cc1[N+](=O)[O-])NC12CC3CC(CC(C3)C1)C2)C(Br)C(=O)c1ccccc1 (stereo not given) ; GI50 = 6.67 µM (inactive)

CC(C(=O)N1C(=O)N(C(=O)[C@H](C)C(O)c2ccccc2)[C@H](c2ccccc2)[C@H]1c1ccccc1)[C@@H](O)c1ccccc1 (stereo not given in full) has a reported GI50 of 12 µM (inactive)

Entry Oc1ncc(N(CCCl)CCCl)c(O)n1 , GI50 reported as 81.3 µM (inactive)

What the record says about CC(C)(C)c1cc(/C=C(\C#N)C(=O)NCCO)cc(C(C)(C)C)c1O : GI50 is 40.7 µM (inactive)

Sample CC(C)(C)c1cc2c(O)c(c1)COCc1cc(C(C)(C)C)cc(c1O)COCc1cc(C(C)(C)C)cc(c1O)COC2 ; GI50 observed: > 100 µM (inactive)

What the record says about C/C=C/C=C/C1=NN(c2cccc(S(=O)(=O)O)c2)C2(C1)SCC(=O)N2c1nc2ccccc2s1 (stereo not given) : GI50 is 19.7 µM (inactive)
